Data origin: patent US8946282B2

Exercise: for every item that follows, state its recorded pIC50.
biological target: aurora B (Homo sapiens, UniProt Q96GD4); assay: radioisotope-based P81 filter-binding assay, aurora B kinase; format: biochemical; conditions: averaged from two independent dose-response curves; read-out: Enzyme assay IC50 Aur B
Sequence (Q96GD4 whole entry): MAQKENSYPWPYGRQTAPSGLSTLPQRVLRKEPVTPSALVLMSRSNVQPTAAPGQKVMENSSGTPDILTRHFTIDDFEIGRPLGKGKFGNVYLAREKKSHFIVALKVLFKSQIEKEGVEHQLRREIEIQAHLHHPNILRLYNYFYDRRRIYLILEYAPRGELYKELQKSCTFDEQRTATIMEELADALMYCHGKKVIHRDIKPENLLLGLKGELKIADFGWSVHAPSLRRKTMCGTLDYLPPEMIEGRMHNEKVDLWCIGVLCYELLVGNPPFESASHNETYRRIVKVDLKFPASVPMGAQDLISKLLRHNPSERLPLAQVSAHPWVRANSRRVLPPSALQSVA
One number for each entry, as −log10 of the molar value.

# example entries with known answers
> print(dat)
                            molecule.smiles  measure.name  assay.result
1  COc1ccc(C(=O)NC(=O)Nc2ccc3c(c2)NC(=O)/C3=C\c2[nH]c(C)c(C(=O)O)c2C)c(F)c1         pIC50          8.64
2  O=C1Nc2cc(NC(=O)c3cccn(-c4ccccc4)c3=O)ccc2/C1=C/c1ccc[nH]1         pIC50          7.06

Attention now shifts to the item below.
GET /value?item= Cc1[nH]c(/C=C2\C(=O)Nc3cc(NC(=O)c4c[nH]cc(C)c4=O)ccc32)c(C)c1C(=O)O &field=pIC50 returns 8.43

---

Target: UniProtKB P36888
Sequence (P36888 27-993): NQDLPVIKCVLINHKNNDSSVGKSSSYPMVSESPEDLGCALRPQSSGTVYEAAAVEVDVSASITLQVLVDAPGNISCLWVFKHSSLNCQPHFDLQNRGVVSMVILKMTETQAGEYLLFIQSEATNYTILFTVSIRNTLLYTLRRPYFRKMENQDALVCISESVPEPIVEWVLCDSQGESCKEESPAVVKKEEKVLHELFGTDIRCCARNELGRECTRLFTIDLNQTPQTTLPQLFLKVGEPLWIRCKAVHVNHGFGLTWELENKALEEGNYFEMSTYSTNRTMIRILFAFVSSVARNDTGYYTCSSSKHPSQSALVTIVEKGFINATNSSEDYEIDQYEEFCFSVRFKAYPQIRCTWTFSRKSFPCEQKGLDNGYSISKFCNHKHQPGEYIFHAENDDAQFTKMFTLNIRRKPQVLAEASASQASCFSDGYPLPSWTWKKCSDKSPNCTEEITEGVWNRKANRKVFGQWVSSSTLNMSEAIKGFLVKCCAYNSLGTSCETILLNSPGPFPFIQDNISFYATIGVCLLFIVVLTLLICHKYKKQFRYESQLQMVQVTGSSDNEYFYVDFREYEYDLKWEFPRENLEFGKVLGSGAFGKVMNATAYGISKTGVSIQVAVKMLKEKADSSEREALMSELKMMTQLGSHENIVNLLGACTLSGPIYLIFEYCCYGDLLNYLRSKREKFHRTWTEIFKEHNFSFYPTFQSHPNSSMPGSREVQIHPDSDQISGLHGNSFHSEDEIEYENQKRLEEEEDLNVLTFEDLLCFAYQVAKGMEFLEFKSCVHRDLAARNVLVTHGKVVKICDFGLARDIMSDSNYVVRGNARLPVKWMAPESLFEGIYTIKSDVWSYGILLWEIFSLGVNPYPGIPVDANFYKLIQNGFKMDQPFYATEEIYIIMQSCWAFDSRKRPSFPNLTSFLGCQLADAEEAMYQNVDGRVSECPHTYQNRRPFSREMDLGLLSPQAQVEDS
Test: radioisotope-based P81 filter-binding assay, FLT-3 kinase
Assay type: biochemical
Conditions: compound at 1.0 μM; mean values (n=2); read-out: percent inhibition of enzyme catalytic activity, FLT-3 (numbers in parentheses)
MEASURE_NAME: inhibition at 1 µM
Enter the number, and then the unit.

> print(dat)
                                   compound        measure.name  assay.result
1  COc1ccc(C(=O)NC(=O)Nc2ccc3c(c2)NC(=O)/C3=C\c2ccc(C(=O)O)[nH]2)cc1  inhibition at 1 µM           10%

Items follow; give inhibition at 1 µM for each.
1. COc1ccc(C(=O)NC(=O)Nc2ccc3c(c2)NC(=O)C3=Cc2ccco2)cc1 (stereo in doubt)
2. COc1ccc(C(=O)NC(=O)Nc2ccc3c(c2)NC(=O)/C3=C/c2ccc(Cl)cc2)cc1
3. COc1ccc(C(=O)NC(=O)Nc2ccc3c(c2)NC(=O)/C3=C/c2ccccc2)cc1

[A]
["15.4%", "6.1%", "34.4%"]
